molecular target: c-Myc template DNA (quadruplex); assay: Quadruplex binding assay (STOP assay, Taq polymerase arrest, capillary electrophoresis); format: biochemical; details: Table 1B; concentration at which 50% of the DNA was arrested; read-out: STOP IC50
quantityKind: IC50 (µM)
Please reply with the bare figure in µM and do not write the unit itself.

Q: Need IC50 of O=C(NCCN1CCCC1)c1cn2c3c(cc(SCCc4cnccn4)cc3c1=O)Oc1cc3ccccc3cc1-2 , thanks.
Result: 3.9

Q: IC50 lookup needed for CN1CCCC1CCNC(=O)c1cn2c3c(cc(SCCc4cnccn4)cc3c1=O)Oc1ccccc1-2 (stereo not shown) , thanks.
Result: 10

Q: Reported IC50 for CN1CCCC1CCNC(=O)c1cn2c3c(cc(SCc4ccccn4)cc3c1=O)Oc1cc3ccccc3cc1-2 (stereo not shown) : what is it?
Result: 3.8

Q: Query (compound): Cc1cc(CSc2cc3c4c(c2)c(=O)c(C(=O)NCCC2CCCN2C)cn4-c2cc4ccccc4cc2O3)no1 (stereo not shown) ; field requested: IC50
Result: 5.4

Q: // lookup IC50 for CN1CCCC1CCNC(=O)c1cn2c3c(cc(SCc4ccccc4)cc3c1=O)Oc1cc3ccccc3cc1-2 (stereo not shown)
Result: 14

---
Q: Requested field: IC50. Item: CN1CCCC1CCNC(=O)c1cn2c3c(cc(SCc4ccncc4)cc3c1=O)Oc1cc3ccccc3cc1-2 (stereo not shown)
Result: 2.9

Q: # lookup: IC50 of CN1CCCC1CCNC(=O)c1cn2c3c(cc(SCCc4cnccn4)cc3c1=O)Oc1cc3ccccc3cc1-2 (stereo not shown)
Result: 3.4
